assay: Activation of quorum sensing system in Pseudomonas aeruginosa JP1 assessed as increase in pyocyanin production at 100 uM measured after 6 hrs relative to control; conditions: filed as activator
endpoint-name: fold change (FC)

[A] CCCCCC[C@@H](C)C(=O)N1C(=O)C=C(OC)[C@@H]1CCCCNC(=O)OC(C)(C)C
[B] C#CCCCC[C@@H](C)C(=O)N1C(=O)C=C(OC)[C@@H]1CCCCNC(=O)OC(C)(C)C
Between the two listed entries A and B , which has its fold change (FC) at the higher number? Your answer should be the label of the entry you select.
A
(A: 5, B: 3)

* * *

test system: MDA-MB-231; experiment: Synergistic anticancer activity against human MDA-MB-231 cells assessed as reduction in cell viability at 50 uM pretreated for 3 hrs followed by TRAIL stimulation measured after 24 hrs; assay type: functional; design: unit not given here; settings: time 27 hrs
endpoint-name: Activity
API note: the answer field is a bare number with no unit suffix.

Reference set (2 entries):
CCCCCC[C@@H](C)C(=O)NCCCC[C@H]1C(OC)=CC(=O)N1C(=O)[C@H](C)CCCCCC: 0.23
C#CCCCC[C@@H](C)C(=O)NCCCC[C@H]1C(OC)=CC(=O)N1C(=O)[C@H](C)CCCCC#C: 0.01

In the following, a different compound is considered.
Recorded Activity of C#CCCCC[C@@H](C)C(=O)NCCCC[C@@H]1NC(=O)C=C1OC , please.
0

* * *

system: MDA-MB-231; test: Synergistic anticancer activity against human MDA-MB-231 cells assessed as reduction in cell viability at 50 uM pretreated for 3 hrs followed by TRAIL stimulation measured after 24 hrs; type: functional; parameters: unit not given here; settings: time 27 hrs
endpoint-name: Activity
In your answer, state the number alone without any accompanying words.

See these solved cases before continuing.
C=CCCCC[C@@H](C)C(=O)NCCCC[C@H]1C(OC)=CC(=O)N1C(=O)[C@H](C)CCCCC=C: 0.08
CCCCCC[C@@H](C)C(=O)N1C(=O)C=C(OC)[C@@H]1CCCCNC(=O)OC(C)(C)C: 0.14

State the recorded Activity for this entry: CCCCCCCCCC(=O)CC(=O)N[C@H]1CCOC1=O
-0.07

GET /values?readout=Activity&item= C=CCCCC[C@@H](C)C(=O)N1C(=O)C=C(OC)[C@@H]1CCCCNC(=O)OC(C)(C)C
0.02

Data request, read-out Activity, for C#CCCCC[C@@H](C)C(=O)N1C(=O)C=C(OC)[C@@H]1CCCCNC(=O)OC(C)(C)C
0.05
